assay: in vivo; conditions: CD-1, mouse, in vivo, sc, 25 mg/kg
ENDPOINT: concentration at 12 h (ng/mL)
Numbers only, in ng/mL.

Request: // returns reported concentration at 12 h for input CC1=C[C@@H]2CN(C(=O)N2OS(=O)(=O)O)[C@@H]1C(N)=O [Durlobactam, durlobactam]
Response: 10

====

assay: in vivo; conditions: CD-1, mouse, in vivo, sc, 25 mg/kg
ENDPOINT: concentration at 1 h

Request: // returns reported concentration at 1 h for input CC1=C[C@@H]2CN(C(=O)N2OS(=O)(=O)O)[C@@H]1C(N)=O [Durlobactam, durlobactam]
Response: 4070 ng/mL

====

assay: in vivo; details: CD-1, mouse, epithelial lining fluid (ELF) / plasma, subcutaneous
ENDPOINT: Kp
Numbers only.

Request: // returns reported Kp for input CC1=C[C@@H]2CN(C(=O)N2OS(=O)(=O)O)[C@@H]1C(N)=O
Response: 0.63
